Measured values drawn from ChEMBL document CHEMBL3526089 for this set.

Measurement target: CYP1A2 (Homo sapiens, UniProt P05177)
Sequence (P05177 whole entry): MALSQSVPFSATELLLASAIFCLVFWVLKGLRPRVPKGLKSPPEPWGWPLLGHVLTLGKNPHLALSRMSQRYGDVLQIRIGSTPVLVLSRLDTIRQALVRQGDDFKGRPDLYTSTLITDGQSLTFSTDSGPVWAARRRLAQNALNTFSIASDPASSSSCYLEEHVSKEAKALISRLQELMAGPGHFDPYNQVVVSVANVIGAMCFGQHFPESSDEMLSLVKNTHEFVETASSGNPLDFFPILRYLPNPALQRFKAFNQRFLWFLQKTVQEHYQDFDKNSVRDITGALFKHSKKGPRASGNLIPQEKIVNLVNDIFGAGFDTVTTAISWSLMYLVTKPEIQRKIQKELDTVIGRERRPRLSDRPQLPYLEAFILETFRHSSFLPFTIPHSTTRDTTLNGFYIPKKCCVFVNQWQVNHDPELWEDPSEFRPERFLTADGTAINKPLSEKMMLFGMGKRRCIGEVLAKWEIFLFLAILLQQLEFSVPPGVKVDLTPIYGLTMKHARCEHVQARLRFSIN
Test: Time dependent inhibition of human CYP1A2 phenacetin O-deethylase activity assessed as decrease in enzyme activity at 100 uM preincubated for 30 mins by IC25-shift assay
Assay type: ADME
Experimental conditions: probe phenacetin (O-deethylation)
Quantity name: inhibition at 30 min, 100 µM
Field note: include the unit after the figure.

In: Query the reported inhibition at 30 min, 100 µM for CYP1A2 (Homo sapiens, UniProt P05177); item: `Cc1ccc(-c2c(-c3nn(C)c4ncnc(N5CC[C@H](N6CCCCC6)C5)c34)cnn2C)cc1`
Out: 17%

---

Measurement target: Cytochrome P450 3A5 (Homo sapiens, UniProt P20815)
Sequence (P20815 whole entry): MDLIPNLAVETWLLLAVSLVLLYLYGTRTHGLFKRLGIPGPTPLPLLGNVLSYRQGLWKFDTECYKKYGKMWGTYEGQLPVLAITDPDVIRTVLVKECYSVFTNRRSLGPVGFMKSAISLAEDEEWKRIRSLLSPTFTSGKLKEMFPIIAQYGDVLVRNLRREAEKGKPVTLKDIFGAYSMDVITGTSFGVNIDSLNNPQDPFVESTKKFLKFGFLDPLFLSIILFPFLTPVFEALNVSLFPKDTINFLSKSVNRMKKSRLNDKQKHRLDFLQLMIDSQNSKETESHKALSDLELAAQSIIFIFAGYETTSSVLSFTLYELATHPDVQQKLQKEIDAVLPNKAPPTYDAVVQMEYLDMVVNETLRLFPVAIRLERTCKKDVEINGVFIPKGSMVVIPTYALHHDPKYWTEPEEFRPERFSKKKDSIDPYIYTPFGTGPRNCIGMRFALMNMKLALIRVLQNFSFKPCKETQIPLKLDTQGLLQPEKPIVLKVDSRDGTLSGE
Test: Reversible inhibition of midazolam 1'-hydroxylase activity of human recombinant CYP3A5 harboring human P450 oxidoreductase and b5
Format: ADME
Quantity name: IC50
Answers without a unit are incomplete; give the number and then its unit.

In: Provide the documented IC50 with Cytochrome P450 3A5 (Homo sapiens, UniProt P20815) as the system for `Cc1ccc(-c2c(-c3nn(C)c4ncnc(N5CC[C@H](N6CCCCC6)C5)c34)cnn2C)cc1`
Out: 17 µM

---

Measurement target: UniProt:P20815
Test: Reversible inhibition of testosterone 6beta-hydroxylase activity of human recombinant CYP3A5 in presence of human P450 oxidoreductase and b5
Format: ADME
Quantity name: pIC50
// field semantics: pIC50 = negative decimal log of concentration (mol/L)

In: State its pIC50 on UniProt:P20815: `Cc1ccc(-c2c(-c3nn(C)c4ncnc(N5CC[C@H](N6CCCCC6)C5)c34)cnn2C)cc1`
Out: 4.15

---

Measurement target: CYP3A (Homo sapiens, UniProt P08684+P20815+P24462+Q9HB55)
Test: Reversible inhibition of human CYP3A felodipine oxidase activity
Format: ADME
Experimental conditions: probe felodipine (oxidation)
Quantity name: pIC50
As a rule, pIC50 stands for the negative log10 of the concentration, concentration in M.

In: Which pIC50 is reported for this molecule? `Cc1ccc(-c2c(-c3nn(C)c4ncnc(N5CC[C@H](N6CCCCC6)C5)c34)cnn2C)cc1`
Out: 6.80

---

Measurement target: UniProt P10632
Sequence (P10632 whole entry): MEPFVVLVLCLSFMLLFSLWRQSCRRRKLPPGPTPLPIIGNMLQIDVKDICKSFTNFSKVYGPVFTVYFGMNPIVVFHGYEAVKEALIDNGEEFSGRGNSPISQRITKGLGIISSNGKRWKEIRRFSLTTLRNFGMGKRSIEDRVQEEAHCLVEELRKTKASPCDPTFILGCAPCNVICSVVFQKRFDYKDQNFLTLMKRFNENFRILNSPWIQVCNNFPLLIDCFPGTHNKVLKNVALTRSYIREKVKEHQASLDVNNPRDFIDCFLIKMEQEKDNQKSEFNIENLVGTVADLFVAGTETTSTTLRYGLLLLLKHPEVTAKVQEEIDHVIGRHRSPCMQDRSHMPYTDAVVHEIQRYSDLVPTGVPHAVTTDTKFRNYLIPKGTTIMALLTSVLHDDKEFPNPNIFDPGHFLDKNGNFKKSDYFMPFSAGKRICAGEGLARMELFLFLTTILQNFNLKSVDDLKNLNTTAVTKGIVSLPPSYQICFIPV
Quantity name: pIC50
Please report pIC50 as the negative decimal logarithm of the molar concentration, giving only the number.

In: Recorded pIC50 for `Cc1ccc(-c2c(-c3nn(C)c4ncnc(N5CC[C@H](N6CCCCC6)C5)c34)cnn2C)cc1` , please?
Out: 4.11

---

Measurement target: Cytochrome P450 2D6 (Homo sapiens, UniProt P10635)
Sequence (P10635 whole entry): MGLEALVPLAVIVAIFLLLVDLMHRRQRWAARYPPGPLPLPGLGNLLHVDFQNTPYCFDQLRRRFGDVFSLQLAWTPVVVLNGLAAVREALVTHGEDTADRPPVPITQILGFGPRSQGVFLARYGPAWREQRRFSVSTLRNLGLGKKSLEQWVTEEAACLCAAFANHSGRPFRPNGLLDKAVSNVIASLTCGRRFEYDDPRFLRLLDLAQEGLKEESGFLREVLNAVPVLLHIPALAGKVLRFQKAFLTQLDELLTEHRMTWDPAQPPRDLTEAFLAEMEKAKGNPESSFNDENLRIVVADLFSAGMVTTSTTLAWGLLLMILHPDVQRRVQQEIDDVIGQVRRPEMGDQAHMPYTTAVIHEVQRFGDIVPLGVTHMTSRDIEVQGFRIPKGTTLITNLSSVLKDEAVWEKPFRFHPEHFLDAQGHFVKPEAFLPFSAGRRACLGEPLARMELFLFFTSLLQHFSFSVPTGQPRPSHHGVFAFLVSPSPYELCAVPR
Quantity name: IC50 (µM)
Express the result in µM but write the number alone.

In: Give the measured IC50 of `Cc1ccc(-c2c(-c3nn(C)c4ncnc(N5CC[C@H](N6CCCCC6)C5)c34)cnn2C)cc1` .
Out: 71

---

Measurement target: CYP2C9 (Homo sapiens)
Sequence (P11712 whole entry): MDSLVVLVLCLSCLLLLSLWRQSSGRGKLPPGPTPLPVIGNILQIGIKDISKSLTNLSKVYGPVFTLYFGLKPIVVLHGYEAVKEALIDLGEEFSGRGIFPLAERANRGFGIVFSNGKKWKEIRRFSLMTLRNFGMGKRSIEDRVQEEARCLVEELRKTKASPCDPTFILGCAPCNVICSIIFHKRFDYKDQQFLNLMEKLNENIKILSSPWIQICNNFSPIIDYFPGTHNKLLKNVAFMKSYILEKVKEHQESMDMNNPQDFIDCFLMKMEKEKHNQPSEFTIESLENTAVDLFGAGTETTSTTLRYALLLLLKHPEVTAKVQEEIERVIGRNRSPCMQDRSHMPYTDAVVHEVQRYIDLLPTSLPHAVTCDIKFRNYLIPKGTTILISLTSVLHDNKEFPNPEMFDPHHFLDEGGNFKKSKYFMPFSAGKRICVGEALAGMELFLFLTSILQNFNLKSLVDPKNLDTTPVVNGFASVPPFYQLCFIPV
Test: Time dependent inhibition of human CYP2C9 diclofenac 4'-hydroxylase activity assessed as decrease in enzyme activity at 100 uM preincubated for 30 mins by IC25-shift assay
Assay type: ADME
Experimental conditions: probe diclofenac (4'-hydroxylation)
Quantity name: inhibition at 30 min, 100 µM (%)
Number in %, nothing else.

In: Item `Cc1ccc(-c2c(-c3nn(C)c4ncnc(N5CC[C@H](N6CCCCC6)C5)c34)cnn2C)cc1` has what recorded inhibition at 30 min, 100 µM?
Out: 5.4
